# Tested on: A549
# METHOD NOTES: Anti-proliferation IC50, A549
# Assay type: cell-based
# CONDITION SET: Homo sapiens, Table 1, compounds of formula I, NI = no inhibition up to 500 μM, read-out: A549 (IC50)
REPORTED PROPERTY: pIC50
In plain terms, pIC50 is the concentration in mol/L turned into minus its base-10 logarithm.

Example entries and their recorded answers appear below.
CCC1OC(=O)[C@H](C)[C@H](OC2C[C@@](C)(OC)[C@@H](O)[C@H](C)O2)[C@H](C)[C@@H](OC2O[C@H](C)C[C@H](N(C)CCCCCC#Cc3ccc(-n4cc(C)ccc4=O)cc3)[C@H]2O)[C@@](C)(OC)C[C@@H](C)C(=O)[C@H](C)[C@@H](O)[C@]1(C)O (stereo partly drawn) [Compound 19e]
4.62
CC[C@H]1OC(=O)[C@@H](C)[C@@H](O[C@H]2C[C@@](C)(OC)[C@@H](O)[C@H](C)O2)[C@@H](C)[C@@H](O[C@H]2O[C@@H](C)C[C@@H](N(C)Cc3ccc(-c4cn(CCCNC(=O)CCCC[C@H]5CCSS5)nn4)cc3)[C@@H]2O)[C@](C)(OC)C[C@@H](C)C(=O)[C@H](C)[C@H](O)[C@]1(C)O
4.24
CCC1OC(=O)[C@H](C)[C@H](OC2C[C@@](C)(OC)[C@@H](O)[C@H](C)O2)[C@H](C)[C@@H](OC2O[C@H](C)C[C@H](N(C)CCCCC#Cc3ccc(-n4cc(C)ccc4=O)cc3)[C@H]2O)[C@@](C)(OC)C[C@@H](C)C(=O)[C@H](C)[C@@H](O)[C@]1(C)O (stereo partly drawn) [Compound 19d]
4.45
CCC1OC(=O)[C@H](C)[C@H](OC2C[C@@](C)(OC)[C@@H](O)[C@H](C)O2)[C@H](C)[C@@H](OC2O[C@H](C)C[C@H](N(C)Cc3cn(CCCCc4ccc(-n5cc(C)ccc5=O)cc4)nn3)[C@H]2O)[C@@](C)(OC)C[C@@H](C)C(=O)[C@H](C)[C@@H](O)[C@]1(C)O (stereo partly drawn) [Compound 14b]
4.54
CCC1OC(=O)[C@H](C)[C@H](OC2C[C@@](C)(OC)[C@@H](O)[C@H](C)O2)[C@H](C)[C@@H](OC2O[C@H](C)C[C@H](N(C)CCCC#Cc3ccc(-n4cc(C)ccc4=O)cc3)[C@H]2O)[C@@](C)(OC)C[C@@H](C)C(=O)[C@H](C)[C@@H](O)[C@]1(C)O (stereo partly drawn) [Compound 19c]
4.23
CCC1OC(=O)[C@H](C)[C@H](OC2C[C@@](C)(OC)[C@@H](O)[C@H](C)O2)[C@H](C)[C@@H](OC2O[C@H](C)C[C@H](N(C)Cc3ccc(-c4cn(CCc5ccc(-n6cc(C)ccc6=O)cc5)nn4)cc3)[C@H]2O)[C@@](C)(OC)C[C@@H](C)C(=O)[C@H](C)[C@@H](O)[C@]1(C)O (stereo partly drawn) [Compound 12c]
4.45
CCC1OC(=O)[C@H](C)[C@H](OC2C[C@@](C)(OC)[C@@H](O)[C@H](C)O2)[C@H](C)[C@@H](OC2O[C@H](C)C[C@H](N(C)Cc3ccc(-c4cn(CCCCc5ccc(-n6cc(C)ccc6=O)cc5)nn4)cc3)[C@H]2O)[C@@](C)(OC)C[C@@H](C)C(=O)[C@H](C)[C@@H](O)[C@]1(C)O (stereo partly drawn) [Compound 14c]
4.96

Now turn to the next compound.
Entry CC[C@H]1OC(=O)[C@@H](C)[C@@H](O[C@@H]2C[C@](C)(OC)[C@H](O)[C@@H](C)O2)[C@@H](C)[C@@H](O[C@H]2O[C@@H](C)C[C@@H](N(C)C)[C@@H]2OC(=O)/C=C/C=C/c2ccc3c(c2)OCO3)[C@](C)(OC)C[C@@H](C)C(=O)[C@H](C)[C@H](O)[C@]1(C)O , system A549: what pIC50 was measured?
4.77

###

# System: VERO
# METHOD NOTES: Anti-proliferation IC50, VERO
# Assay type: cell-based
# CONDITION SET: Chlorocebus sabaeus, Table 1, compounds of formula I, NI = no inhibition up to 500 μM, read-out: VERO (IC50)
REPORTED PROPERTY: IC50 (µM)
Express the result in µM but write the number alone.

CCC1OC(=O)[C@H](C)[C@H](OC2C[C@@](C)(OC)[C@@H](O)[C@H](C)O2)[C@H](C)[C@@H](OC2O[C@H](C)C[C@H](N(C)Cc3cn(Cc4ccc(-n5cc(C)ccc5=O)cc4)nn3)[C@H]2O)[C@@](C)(OC)C[C@@H](C)C(=O)[C@H](C)[C@@H](O)[C@]1(C)O (stereo partly drawn) [Compound 10b]
153

We next turn to a different compound, shown below.
# value lookup — system VERO, readout IC50, item CC[C@H]1OC(=O)[C@@H](C)[C@@H](O[C@H]2C[C@@](C)(OC)[C@@H](O)[C@H](C)O2)[C@@H](C)[C@@H](O[C@H]2O[C@@H](C)C[C@@H](N(C)Cc3ccc(-c4cn(CCNC(=O)CCCC[C@H]5CCSS5)nn4)cc3)[C@@H]2O)[C@](C)(OC)C[C@@H](C)C(=O)[C@H](C)[C@H](O)[C@]1(C)O
65

###

# System: A549
# METHOD NOTES: Anti-proliferation IC50, A549
# Format: cell-based
# CONDITION SET: Homo sapiens, Table 2, compounds of formula II, read-out: Anti-proliferation IC50 A549
This section presents compounds with their documented IC50 values.
Reply numerically in µM, unit not repeated.

CC[C@H]1OC(=O)[C@H](C)[C@@H](O[C@H]2C[C@@](C)(OC)[C@@H](O)[C@H](C)O2)[C@H](C)[C@@H](O[C@@H]2O[C@H](C)C[C@H](N(C)C(=O)CCCC[C@H]3CCSS3)[C@H]2O)[C@](C)(O)C[C@@H](C)CN(C)[C@H](C)[C@@H](O)[C@]1(C)O
18.8

# evaluate next
# lookup: IC50 of CC[C@H]1OC(=O)[C@H](C)[C@@H](O[C@H]2C[C@@](C)(OC)[C@@H](O)[C@H](C)O2)[C@H](C)[C@@H](O[C@@H]2O[C@H](C)C[C@H](N(C)CCCCc3ccc(-n4cc(C)ccc4=O)cc3)[C@H]2O)[C@](C)(O)C[C@@H](C)CN(C)[C@H](C)[C@@H](O)[C@]1(C)O [Compound 15a]
43.2

###

# Test system: A549
# METHOD NOTES: Anti-proliferation IC50, A549
# Format: cell-based
# CONDITION SET: Homo sapiens, Table 2, compounds of formula II, read-out: Anti-proliferation IC50 A549
Reported IC50 values follow for various molecules
Write the answer as a number in µM, unit excluded.

CC[C@H]1OC(=O)[C@H](C)[C@@H](O[C@H]2C[C@@](C)(OC)[C@@H](O)[C@H](C)O2)[C@H](C)[C@@H](O[C@@H]2O[C@H](C)C[C@H](N(C)CCc3ccc(-n4cc(C)ccc4=O)cc3)[C@H]2O)[C@](C)(O)C[C@@H](C)CN(C)[C@H](C)[C@@H](O)[C@]1(C)O [Compound 13a]
40.8
CC[C@@H]1OC(=O)[C@@H](C)[C@H](O[C@H]2C[C@@](C)(OC)[C@@H](O)[C@H](C)O2)[C@@H](C)[C@H](O[C@@H]2O[C@H](C)C[C@H](N(C)C)[C@H]2OC(=O)CCCC[C@H]2CCSS2)C(C)(O)C[C@H](C)CN(C)[C@@H](C)[C@H](O)[C@@]1(C)O (stereo partly shown)
23
CC[C@H]1OC(=O)[C@H](C)[C@@H](O[C@H]2C[C@@](C)(OC)[C@@H](O)[C@H](C)O2)[C@H](C)[C@@H](O[C@@H]2O[C@H](C)C[C@H](N(C)Cc3ccc(-n4cc(C)ccc4=O)cc3)[C@H]2O)[C@](C)(O)C[C@@H](C)CN(C)[C@H](C)[C@@H](O)[C@]1(C)O [Compound 11a]
47.2

Requested field: IC50. Item: CC[C@@H]1OC(=O)[C@@H](C)[C@H](O[C@H]2C[C@@](C)(OC)[C@@H](O)[C@H](C)O2)[C@@H](C)[C@H](O[C@H]2O[C@@H](C)C[C@@H](N(C)C)[C@@H]2OC(=O)/C=C/C=C/c2ccc3c(c2)OCO3)C(C)(O)C[C@H](C)CN(C)[C@@H](C)[C@H](O)[C@@]1(C)O (stereo partly shown)
15.6

Any idea what IC50 was measured for CC[C@@H]1OC(=O)[C@@H](C)[C@H](O)[C@@H](C)[C@H](O[C@H]2O[C@@H](C)C[C@@H](N(C)Cc3ccc(-c4cn(CCCNC(=O)CCCC[C@H]5CCSS5)nn4)cc3)[C@@H]2O)C(C)(O)C[C@H](C)CN(C)[C@@H](C)[C@H](O)[C@@]1(C)O (stereo partly shown) ?
92.9

Requested field: IC50. Item: CC[C@H]1OC(=O)[C@H](C)[C@@H](O[C@H]2C[C@@](C)(OC)[C@@H](O)[C@H](C)O2)[C@H](C)[C@@H](O[C@@H]2O[C@H](C)C[C@H](N(C)CCCCC#Cc3ccc(-n4cc(C)ccc4=O)cc3)[C@H]2O)[C@](C)(O)C[C@@H](C)CN(C)[C@H](C)[C@@H](O)[C@]1(C)O [Compound 20d]
15.5

Report IC50 for CC[C@@H]1OC(=O)[C@@H](C)[C@H](O[C@H]2C[C@@](C)(OC)[C@@H](O)[C@H](C)O2)C(C)[C@H](O[C@H]2O[C@@H](C)C[C@@H](N(C)C(=O)/C=C/C=C/c3ccc4c(c3)OCO4)[C@@H]2O)C(C)(O)C[C@H](C)CN(C)[C@@H](C)[C@H](O)[C@@]1(C)O (stereo partly shown) please.
19.6
